Item-by-item account of GI50
Target: Ba/F3-L858R/T790M/C797S (Homo sapiens, UniProt P00533, T790M/C797S/L858R, cells depend on it)
Sequence (P00533 whole entry T790M/C797S/L858R): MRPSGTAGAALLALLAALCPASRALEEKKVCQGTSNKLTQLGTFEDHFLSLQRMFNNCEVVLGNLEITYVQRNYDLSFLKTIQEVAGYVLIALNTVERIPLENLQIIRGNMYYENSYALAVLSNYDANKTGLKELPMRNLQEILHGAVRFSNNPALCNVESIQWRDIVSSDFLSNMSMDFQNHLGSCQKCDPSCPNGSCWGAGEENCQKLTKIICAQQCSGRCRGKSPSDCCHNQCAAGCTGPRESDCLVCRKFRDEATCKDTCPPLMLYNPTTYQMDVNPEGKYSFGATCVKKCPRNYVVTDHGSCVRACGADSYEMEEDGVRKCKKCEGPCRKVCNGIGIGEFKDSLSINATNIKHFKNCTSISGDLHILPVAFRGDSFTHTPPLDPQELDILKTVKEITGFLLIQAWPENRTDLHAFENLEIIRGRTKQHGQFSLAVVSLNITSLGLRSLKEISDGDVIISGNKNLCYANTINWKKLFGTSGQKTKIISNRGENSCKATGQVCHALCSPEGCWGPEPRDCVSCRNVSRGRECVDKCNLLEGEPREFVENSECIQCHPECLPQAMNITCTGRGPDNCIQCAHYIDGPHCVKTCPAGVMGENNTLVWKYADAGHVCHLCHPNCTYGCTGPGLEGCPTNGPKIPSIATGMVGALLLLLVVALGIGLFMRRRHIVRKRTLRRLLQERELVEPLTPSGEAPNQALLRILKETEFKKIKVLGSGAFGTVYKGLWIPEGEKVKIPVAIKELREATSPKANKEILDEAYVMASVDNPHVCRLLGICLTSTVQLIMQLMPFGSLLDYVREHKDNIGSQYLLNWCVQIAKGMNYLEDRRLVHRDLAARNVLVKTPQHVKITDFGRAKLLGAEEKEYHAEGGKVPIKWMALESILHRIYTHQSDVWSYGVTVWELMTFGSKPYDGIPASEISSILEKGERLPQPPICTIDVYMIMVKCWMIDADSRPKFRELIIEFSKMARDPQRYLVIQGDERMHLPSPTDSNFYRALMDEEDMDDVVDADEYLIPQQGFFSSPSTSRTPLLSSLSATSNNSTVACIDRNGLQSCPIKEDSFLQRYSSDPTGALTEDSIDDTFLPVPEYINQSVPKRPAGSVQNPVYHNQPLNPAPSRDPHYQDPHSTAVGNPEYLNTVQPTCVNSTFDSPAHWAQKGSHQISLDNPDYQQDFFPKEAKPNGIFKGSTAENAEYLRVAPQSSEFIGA
Test: Ba/F3-L858R/T790M/C797S cells proliferation assay (CellTiter Glo)
Format: cell-based
Conditions: cell proliferation, 72 h, class symbols; read-out: Ba/F3-L858R/T790M/C797S IC50
Method: a) The medium was preheated in a 37°0 C. water bath in advance. b) Remove the cryogenic vials from the liquid nitrogen tank, quickly put it into a 37° C. water bath, and completely melt it in 1 min. […] c) The Luminescence signal value was read using a PerkinElmer reader. […] Data were analyzed using GraphPad Prism 6.0 software to obtain a fitted curve of compound activity. […] X: The log of the concentration of the compound; Y: Luminescence value. […]

// below: answered molecules
CP(C)(=O)c1ccccc1Nc1nc(Nc2ccc(N3CCC4(CC3)CC(NCCO)C4)c(Cl)c2)ncc1Cl    > 50 nM
CN(C)C1CC2(CCN(c3ccc(Nc4ncc(Cl)c(Nc5ccccc5P(C)(C)=O)n4)cc3F)CC2)C1    10 to 50 nM
CP(C)(=O)c1ccccc1Nc1ccnc(Nc2ccc(N3CCC4(CC3)CC(N)C4)c(Cl)c2)n1    > 50 nM
Cc1cc(Nc2ncc(C)c(Nc3ccccc3P(C)(C)=O)n2)ccc1N1CC2(CC(N)C2)C1    > 50 nM
Cc1cc(Nc2ncc(Cl)c(Nc3ccccc3P(C)(C)=O)n2)ccc1N1CC2(CCC(N)CC2)C1    10 to 50 nM
CN(C)C1CC2(CCN(c3ccc(Nc4ncc(Cl)c(Nc5ccccc5P(C)(C)=O)n4)cc3)CC2)C1    ≤ 10 nM

GI50 lookup needed for CP(C)(=O)c1ccccc1Nc1nc(Nc2ccc(N3CCC4(CC3)CC(N)C4)c(C(F)(F)F)c2)ncc1Cl , thanks.
10 to 50 nM

###

Molecular target: EGFR L858R/T790M/C797S (Homo sapiens, UniProt P00533, C797S/L858R/T790M)
Sequence (P00533 25-1210 T790M/C797S/L858R): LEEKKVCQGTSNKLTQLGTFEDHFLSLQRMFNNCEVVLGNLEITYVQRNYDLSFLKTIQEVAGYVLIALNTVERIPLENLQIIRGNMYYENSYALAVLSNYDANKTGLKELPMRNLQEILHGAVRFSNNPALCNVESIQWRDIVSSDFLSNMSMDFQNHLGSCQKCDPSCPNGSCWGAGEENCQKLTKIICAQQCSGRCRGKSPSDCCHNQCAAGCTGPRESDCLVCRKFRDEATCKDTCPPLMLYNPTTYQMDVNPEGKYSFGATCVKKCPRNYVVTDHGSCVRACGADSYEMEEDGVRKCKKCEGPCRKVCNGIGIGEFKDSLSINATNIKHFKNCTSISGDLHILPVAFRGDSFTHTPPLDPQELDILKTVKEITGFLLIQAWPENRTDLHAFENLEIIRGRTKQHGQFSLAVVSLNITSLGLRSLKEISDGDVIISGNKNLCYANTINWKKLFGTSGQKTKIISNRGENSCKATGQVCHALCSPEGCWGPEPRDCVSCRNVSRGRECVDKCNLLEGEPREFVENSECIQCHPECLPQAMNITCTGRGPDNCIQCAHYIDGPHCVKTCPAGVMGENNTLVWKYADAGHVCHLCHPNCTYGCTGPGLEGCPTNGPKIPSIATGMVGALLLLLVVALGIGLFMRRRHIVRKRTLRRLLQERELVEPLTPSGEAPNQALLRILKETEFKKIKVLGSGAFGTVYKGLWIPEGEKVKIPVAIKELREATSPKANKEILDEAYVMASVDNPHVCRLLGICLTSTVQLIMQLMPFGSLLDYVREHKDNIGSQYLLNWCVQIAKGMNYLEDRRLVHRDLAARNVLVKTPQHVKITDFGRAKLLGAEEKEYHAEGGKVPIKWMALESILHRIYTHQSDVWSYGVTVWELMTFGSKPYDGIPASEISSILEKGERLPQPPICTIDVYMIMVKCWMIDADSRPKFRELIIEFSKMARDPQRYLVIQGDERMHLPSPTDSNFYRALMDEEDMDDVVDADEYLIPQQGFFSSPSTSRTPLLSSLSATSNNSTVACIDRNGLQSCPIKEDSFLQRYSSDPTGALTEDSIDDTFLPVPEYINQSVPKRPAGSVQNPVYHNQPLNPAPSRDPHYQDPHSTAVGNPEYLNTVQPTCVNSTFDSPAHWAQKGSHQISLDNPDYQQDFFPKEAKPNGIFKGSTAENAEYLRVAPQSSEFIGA
Test: Kinase assay (mobility shift), EGFR L858R/T790M/C797S
Type: biochemical
Settings: numeric values
pIC50: −log10 of the molar value.
property.label: pIC50

CN(C)C1CC2(CCN(c3ccc(Nc4ncc(Cl)c(Nc5ccccc5P(C)(C)=O)n4)cc3C(F)(F)F)CC2)C1    8.35

A = CP(C)(=O)c1ccccc1Nc1nc(Nc2ccc(N3CCC4(CC3)CC(NCCO)C4)c(Cl)c2)ncc1Cl
B = CP(C)(=O)c1ccccc1Nc1nc(Nc2ccc(N3CCC4(CC3)CC(N)C4)c(C(F)(F)F)c2)ncc1Cl
C = CN(C)C1CC2(CCN(c3ccc(Nc4nccc(Nc5ccccc5P(C)(C)=O)n4)cc3Cl)CC2)C1
Arrange the 3 compounds from largest to smallest pIC50. # list labels per requested ordering
A, C, B
(A: 8.49, C: 8.11, B: 7.80)

###

Target: Ba/F3-L858R/T790M/C797S (Homo sapiens, UniProt P00533, T790M/C797S/L858R, cells depend on it)
Test: Ba/F3-L858R/T790M/C797S cells proliferation assay (CellTiter Glo)
Assay type: cell-based
Conditions: cell proliferation, 72 h, class symbols; read-out: Ba/F3-L858R/T790M/C797S IC50
property.label: GI50

Consider the following illustrative entries.
CN(C)C1CC2(CCN(c3ccc(Nc4ncc(Cl)c(Nc5ccccc5P(C)(C)=O)n4)cc3Cl)CC2)C1    10 to 50 nM
CNC1CCC2(CC1)CN(c1ccc(Nc3ncc(Cl)c(Nc4ccccc4P(C)(C)=O)n3)cc1C)C2    10 to 50 nM
CN(C)C1CC2(CCN(c3ccc(Nc4ncc(Cl)c(Nc5ccccc5P(C)(C)=O)n4)cc3C(F)(F)F)CC2)C1    10 to 50 nM

Lab note: next molecule to report on.
// lookup GI50 for Cc1cc(Nc2ncc(F)c(Nc3ccccc3P(C)(C)=O)n2)ccc1N1CC2(CC(N)C2)C1
> 50 nM

Source of measurements: patent US20220064196A1
